We begin with a simple list: items and their reported IC50.
Molecular target: Bovine Phosphodiesterase
Assay: Phosphodiesterase inhibiting activity (cAMP substrate, remaining cAMP measured by HPLC)
Details: inhibition of phosphodiesterase, from Table 2 data; read-out: IC 50 values
Kindly answer with a numeric value in µM, unit omitted.

// known answers, use as guide
O=c1c(-c2ccc(O)c(Oc3ccc(-c4coc5cc(O)cc(O)c5c4=O)cc3)c2)coc2cc(O)ccc12	4.9
O=c1c(-c2ccc(Oc3cc(-c4coc5cc(O)cc(O)c5c4=O)ccc3O)cc2)coc2cc(O)cc(O)c12 [NA23063A]	2.1
O=c1c(-c2ccc(O)c(-c3cc(-c4coc5cc(O)cc(O)c5c4=O)ccc3O)c2)coc2cc(O)cc(O)c12 [NA23063C]	1.3
O=c1c(-c2ccc(O)c(-c3cc(-c4coc5cc(O)cc(O)c5c4=O)ccc3O)c2)coc2cc(O)ccc12 [NA23063D]	7.9

Okay, now this compound:
Determine from records and report IC50 for O=c1c(-c2ccc(Oc3cc(-c4coc5cc(O)cc(O)c5c4=O)ccc3O)cc2)coc2cc(O)ccc12 4.9
